Where these numbers come from: patent US20240116985A1

- measured_on: beta-catenin/TCF4 engagement (Homo sapiens)
- Construct: expressed in transfected cells; host or cells: HEK293
- method_summary: Nano-BRET target engagement assay (B-cat-Halo & TCF4-Luc in HEK293 cells)
- Assay type: cell-based
- particulars: absolute IC50; read-out: NanoBRET Abs IC50
pIC50: −log10 of the molar value.
test_readout: pIC50

- CC(=O)N1CCC[C@]12CC=CCCCC1(CCCC=CCCCOC(=O)N3CC[C@@](C(=O)N[C@@H](Cc4ccsc4)C(=O)N[C@H](C(=O)N[C@@H](CCC(N)=O)C(N)=O)[C@@H](C)c4ccc5ccccc5c4)(C3)NC(=O)[C@H](CC(C)C)NC(=O)[C@H](Cc3ccccc3)NC(=O)[C@H](C)NC(=O)[C@H](C)NC(=O)[C@H](Cc3cccc(C(=O)O)c3)NC(=O)[C@H](CC(=O)O)NC1=O)NC(=O)[C@H](CC(C)(C)C)NC(=O)[C@H](CC(=O)O)NC2=O (some centres unmarked) [I-2313]: 4.61

---

Reported values of pIC50 for individual entries
- measured_on: full-length beta-Catenin (Uniprot ID P35222) (Homo sapiens)
- Construct: 10 nM full-length beta-Catenin (Uniprot ID P35222)
- method_summary: Fluorescence polarization IC50 (beta-catenin / 5FAM-TCF4 10-53 competition)
- Type: binding
- particulars: fluorescence polarization; read-out: beta-Catenin FP IC50
pIC50: −log10 of the molar value.
test_readout: pIC50

* CC(=O)N1CCC[C@]12CC=CCCCC1(CCCC=CCCCOC(=O)N3CC[C@@](C(=O)N[C@@H](Cc4ccsc4)C(=O)N[C@@H](Cc4csc5ccccc45)C(=O)N[C@@H](CCC(N)=O)C(N)=O)(C3)NC(=O)[C@H]([C@@H](C)O)NC(=O)[C@H](Cc3ccccc3)NC(=O)[C@H](C)NC(=O)C(C)(C)NC(=O)[C@H]([C@@H](C)O)NC(=O)[C@H](CC(N)=O)NC1=O)NC(=O)[C@H](CC(C)(C)C)NC(=O)[C@H](CC(=O)O)NC2=O (stereo partly drawn) | 6.40
* CC(=O)N1CCC[C@]12CC=CCCCC1(CCCC=CCCCOC(=O)N3CC[C@@](C(=O)N[C@@H](Cc4ccsc4)C(=O)N[C@@H](Cc4csc5ccccc45)C(=O)N[C@@H](CCC(N)=O)C(N)=O)(C3)NC(=O)[C@H](CC(C)C)NC(=O)[C@H](Cc3ccccc3)NC(=O)[C@H](C)NC(=O)[C@H](C)NC(=O)[C@H](CCN(CCN3CCOCC3)CC(=O)O)NC(=O)[C@H](CC(=O)O)NC1=O)NC(=O)[C@H](CC(C)(C)C)NC(=O)[C@H](CC(=O)O)NC2=O (stereo partly drawn) | 7.09
* CC(=O)N1CCC[C@]12CC=CCCCC1(CCCC=CCCCOC(=O)N3CC[C@@](C(=O)N[C@@H](Cc4ccccc4C(F)(F)F)C(=O)N[C@@H](Cc4ccc(Cl)cc4)C(=O)N[C@@H](C)C(N)=O)(C3)NC(=O)[C@H](CC(C)C)NC(=O)[C@H](Cc3ccccc3)NC(=O)[C@H](C)NC(=O)[C@H](CCC(N)=O)NC(=O)[C@H](Cc3cccc(C(=O)O)c3)NC(=O)[C@H](CC(=O)O)NC1=O)NC(=O)[C@H](CC(C)(C)C)NC(=O)[C@H](CC(=O)O)NC2=O (stereo partly drawn) | 7.30

---

- measured_on: beta-catenin/TCF4 engagement (Homo sapiens, UniProt P35222)
- Construct: expressed in transfected cells; host or cells: HEK293
- Sequence (P35222 1-781): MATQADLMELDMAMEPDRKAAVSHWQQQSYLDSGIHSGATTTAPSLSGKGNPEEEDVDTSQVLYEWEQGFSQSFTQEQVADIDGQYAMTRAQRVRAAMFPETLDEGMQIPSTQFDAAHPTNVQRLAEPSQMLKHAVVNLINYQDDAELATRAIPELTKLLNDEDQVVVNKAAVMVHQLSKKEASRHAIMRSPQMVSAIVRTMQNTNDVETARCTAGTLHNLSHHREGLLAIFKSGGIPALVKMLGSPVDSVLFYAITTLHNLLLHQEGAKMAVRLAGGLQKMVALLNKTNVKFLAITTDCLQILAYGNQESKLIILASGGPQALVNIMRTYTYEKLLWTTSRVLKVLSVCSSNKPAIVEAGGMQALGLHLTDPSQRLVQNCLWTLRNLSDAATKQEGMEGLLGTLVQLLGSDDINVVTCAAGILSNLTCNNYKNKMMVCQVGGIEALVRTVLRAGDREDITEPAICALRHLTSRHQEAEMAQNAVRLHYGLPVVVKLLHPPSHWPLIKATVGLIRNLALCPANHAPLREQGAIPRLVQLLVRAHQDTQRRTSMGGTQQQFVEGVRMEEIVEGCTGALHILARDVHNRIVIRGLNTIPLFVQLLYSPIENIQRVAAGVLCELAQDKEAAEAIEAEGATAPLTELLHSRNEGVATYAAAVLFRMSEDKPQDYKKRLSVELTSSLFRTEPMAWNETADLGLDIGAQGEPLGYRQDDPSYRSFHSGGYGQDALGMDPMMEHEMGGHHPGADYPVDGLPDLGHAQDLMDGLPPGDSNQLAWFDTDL
- method_summary: Nano-BRET target engagement assay (B-cat-Halo & TCF4-Luc in HEK293 cells)
- Assay type: cell-based
- particulars: read-out: NanoBRET Abs IC50
pIC50: −log10 of the molar value.
Measured pIC50 values are reported for all entries that follow.
test_readout: pIC50

* CC(=O)N1CCC[C@]12CC=CCCCC1(CCCC=CCCCCOC(=O)N3CC[C@@](C(=O)N[C@@H](Cc4ccsc4)C(=O)N[C@@H](Cc4csc5ccccc45)C(=O)N[C@@H](CC(N)=O)C(=O)N[C@H](C)C(N)=O)(C3)NC(=O)[C@H](CC(N)=O)NC(=O)[C@H](Cc3ccccc3)NC(=O)[C@H](C)NC(=O)[C@H](C)NC(=O)[C@H](CC(=O)O)NC(=O)[C@H](CC(=O)O)NC1=O)NC(=O)[C@H](CC(C)(C)C)NC(=O)[C@H](CC(=O)O)NC2=O (stereo partly drawn) [I-835] | 4.42
* CC(=O)N1CCC[C@]12CC=CCCCC1(CCCC=CCCCOC(=O)N3CC[C@@](C(=O)N[C@@H](Cc4ccsc4)C(=O)N[C@@H](Cc4ccc(Cl)c(Cl)c4)C(=O)N[C@@H](CCC(N)=O)C(N)=O)(C3)NC(=O)[C@H](CC(C)C)NC(=O)[C@H](Cc3ccccc3)NC(=O)[C@H](C)NC(=O)[C@H](C)NC(=O)[C@H](CC(=O)O)NC(=O)[C@H](CC(=O)O)NC1=O)NC(=O)[C@H](CC(C)(C)C)NC(=O)[C@H](CC(=O)O)NC2=O (stereo partly drawn) [I-2183] | 5.30
* CC(=O)N1CCC[C@]12CC=CCCCC1(CCCC=CCCCOC(=O)N3CC[C@@](C(=O)N[C@@H](Cc4ccsc4)C(=O)N[C@@H](Cc4csc5ccccc45)C(=O)N[C@@H](Cc4c[nH]cn4)C(N)=O)(C3)NC(=O)[C@H](CC(N)=O)NC(=O)[C@H](Cc3ccccc3)NC(=O)[C@H](C)NC(=O)[C@H](C)NC(=O)[C@H](CN(CC(=O)O)CC(F)(F)F)NC(=O)[C@H](CC(=O)O)NC1=O)NC(=O)[C@H](CC(C)(C)C)NC(=O)[C@H](CC(=O)O)NC2=O (stereo partly drawn) [I-770] | 4.86

---

- measured_on: full-length B-Catenin (Uniprot ID P35222) (Homo sapiens, UniProt P35222)
- Construct: 65 nM full-length B-Catenin (Uniprot ID P35222)
- method_summary: Alphascreen binding assay (beta-catenin / biotin-TCF4 10-53)
pEC50: −log10 of the molar value.
test_readout: pEC50

• CC[C@H](C)[C@@H]1NC(=O)[C@H](CC(=O)O)NC(=O)[C@]2(CC=CCCCC3(CCCC=CCCCCCC[C@@](C)(C(=O)N[C@@H](Cc4ccccc4)C(=O)N[C@@H](Cc4c[nH]c5ccccc45)C(=O)N[C@@H](Cc4c[nH]cn4)C(N)=O)NC(=O)[C@H](C(C)C)NC(=O)[C@H](Cc4ccccc4)NC(=O)[C@H](C)NC(=O)[C@H](C)NC(=O)[C@H](CCC(=O)O)NC(=O)[C@H](CC(=O)O)NC3=O)NC1=O)CCCN2C(C)=O (stereo partly shown) = 6.26
• CCCC[C@@H]1NC(=O)[C@H](CC(=O)O)NC(=O)[C@](C)(NC(=O)[C@@H](NC(=O)[C@H](CC(=O)O)NC(=O)[C@H](C)NC(C)=O)[C@@H](C)CC)CCN(C)C(=O)OCC=CCCCCC[C@@](C)(C(=O)N[C@@H](Cc2ccccc2)C(=O)N[C@@H](Cc2c[nH]c3ccccc23)C(=O)N[C@@H](Cc2c[nH]cn2)C(N)=O)NC(=O)[C@H](CCC(N)=O)NC(=O)[C@H](Cc2ccccc2)NC(=O)[C@H](C)NC(=O)[C@H](C)NC1=O = 5.04
• CC(=O)N1CCC[C@]12CC=CCCCC1(CCCC=CCCCCCC[C@@](C)(C(=O)N[C@@H](Cc3ccccc3)C(=O)N[C@@H](Cc3c[nH]c4ccccc34)C(=O)N[C@@H](CCC(N)=O)C(N)=O)NC(=O)[C@H](C(C)C)NC(=O)[C@H](Cc3cccc(C(F)(F)F)c3)NC(=O)[C@H](C)NC(=O)[C@H](C)NC(=O)[C@H](CC(=O)O)NC(=O)[C@H](CC(=O)O)NC1=O)NC(=O)[C@H](C)NC(=O)[C@H](CC(=O)O)NC2=O (stereo partly shown) [I-236] = 6.42
• CC(=O)N1CCC[C@]12CC=CCCCC1(CCCC=CCCCCCC[C@@](C)(C(=O)N[C@@H](Cc3ccccc3)C(=O)N[C@@H](Cc3c[nH]c4ccccc34)C(=O)N[C@@H](CCC(N)=O)C(N)=O)NC(=O)[C@H](C(C)C)NC(=O)[C@H](Cc3cccs3)NC(=O)[C@H](C)NC(=O)[C@H](C)NC(=O)[C@H](CC(=O)O)NC(=O)[C@H](CC(=O)O)NC1=O)NC(=O)[C@H](C)NC(=O)[C@H](CC(=O)O)NC2=O (stereo partly shown) = 7.28
